target: C1r (Homo sapiens); assay: anti-complement (anti-C1 esterase) activity, C1r hydrolysis of AAME (acetyl-arginine methyl ester); assay type: biochemical
Sequence (P00736 18-705): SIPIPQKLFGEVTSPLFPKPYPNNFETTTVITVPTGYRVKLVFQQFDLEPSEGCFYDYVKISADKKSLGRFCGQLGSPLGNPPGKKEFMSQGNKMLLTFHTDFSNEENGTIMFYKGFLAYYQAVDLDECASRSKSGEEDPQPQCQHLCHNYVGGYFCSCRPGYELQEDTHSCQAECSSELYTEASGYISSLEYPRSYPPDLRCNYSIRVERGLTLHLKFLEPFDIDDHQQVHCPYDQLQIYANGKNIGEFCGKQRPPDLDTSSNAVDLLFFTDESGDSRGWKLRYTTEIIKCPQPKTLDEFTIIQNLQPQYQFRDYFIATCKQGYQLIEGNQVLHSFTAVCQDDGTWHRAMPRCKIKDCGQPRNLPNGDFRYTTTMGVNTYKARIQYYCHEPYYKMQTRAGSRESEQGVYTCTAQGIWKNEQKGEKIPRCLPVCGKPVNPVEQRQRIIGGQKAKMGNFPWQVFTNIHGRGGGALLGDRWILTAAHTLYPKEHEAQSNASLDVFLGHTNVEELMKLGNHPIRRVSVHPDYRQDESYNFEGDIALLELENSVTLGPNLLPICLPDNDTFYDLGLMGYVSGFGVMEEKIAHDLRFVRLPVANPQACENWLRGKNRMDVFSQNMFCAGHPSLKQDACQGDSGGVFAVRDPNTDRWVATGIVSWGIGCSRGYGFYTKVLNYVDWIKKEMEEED
Counter-ions that a name gives are not always drawn.
Listed here: items and their measured IC50.
Value expressed in nM; do not type the unit.

Cl.N=C(N)c1ccc2cc(OC(=O)c3ccc(CNC(=O)[C@H]4CC[C@H](C(=O)O)CC4)o3)ccc2c1 [Example 11, hydrochloride] = 1200

# context switch: different compound, same IC50
Report IC50 for N=C(N)c1ccc2cc(OC(=O)c3ccc(CNC(=O)[C@H]4CC[C@@H](C(=O)O)CC4)o3)ccc2c1 [Example 10, hydrochloride] please.
160

---

Counter-ions that a name gives are not always drawn.
So I've got pIC50 readings for thrombin (Homo sapiens, UniProt P00734), take a look.
On this scale, pIC50 is minus log10 of a concentration expressed in M (mol/L).

Cl.N=C(N)c1ccc2cc(OC(=O)c3ccc(CNC(=O)Cc4ccc(C(=O)O)cc4)o3)ccc2c1 [Example 6, hydrochloride] = 5.00

Quick one: pIC50 for N=C(N)c1ccc2cc(OC(=O)c3ccc(CNC(=O)c4ccc(CC(=O)O)cc4)o3)ccc2c1 [Example 7, hydrochloride] ?
6.40

Could you tell me which pIC50 is on file for COC(=O)Cc1ccc(C(=O)NCc2ccc(C(=O)Oc3ccc4cc(C(=N)N)ccc4c3)o2)cc1 [Example 4, hydrochloride] ?
7.15

Would you kindly share the measured pIC50 for N=C(N)c1ccc2cc(OC(=O)c3ccc(CNC(=O)/C=C\C(=O)O)o3)ccc2c1 [Example 12, methanesulfonate] ?
6.22

Param item = CC(C)(C)OC(=O)CC(=O)NCc1ccc(C(=O)Oc2ccc3cc(C(=N)N)ccc3c2)o1 [Example 15, hydrochloride] ; retrieve measured pIC50.
6.40

Item under review: CC(C)(C)OC(=O)c1ccc(CC(=O)NCc2ccc(C(=O)Oc3ccc4cc(C(=N)N)ccc4c3)o2)cc1 [Example 5, hydrochloride] . Reported pIC50?
6.74

Which pIC50 is reported for this molecule? CC(C)(C)OC(=O)C=Cc1ccc(C(=O)NCc2ccc(C(=O)Oc3ccc4cc(C(=N)N)ccc4c3)o2)cc1 [Example 1, hydrobromide]
6.46

Please look up its pIC50: N=C(N)c1ccc2cc(OC(=O)c3ccc(CNC(=O)c4ccc(CCC(=O)O)cc4)o3)ccc2c1 [Example 9, hydrochloride]
6.19

# get_value(readout='pIC50', item= COC(=O)CCC(=O)NCc1ccc(C(=O)Oc2ccc3cc(C(=N)N)ccc3c2)o1.Cl [Example 34, hydrochloride] )
7.05
